- studySystem: sodium-proton exchanger of subtype 3 (NHE3) (Homo sapiens)
- Construct: expressed in transfected cells
- testDetails: Recovery of intracellular pH (pHi) after acidification in LAP1 cells stably expressing NHE3 (BCECF fluorescence, FLIPR)
- Assay type: cell-based
- measurementConditions: LAP1 cells stably expressing NHE3; pH recovery after acidification; range 1 is % inhibition at 10 μM; read-out: Activity range (inhibitory effect on NHE3)
Form field: IC50 (one value per entry).

CN1CCC2CN([C@H]3Cc4c(Cl)cc(Cl)cc4[C@@H]3Oc3ccc(S(C)(=O)=O)cc3)CC21 (single isomer, unassigned) [Example 581]	< 1000 nM
N#Cc1ccc(O[C@H]2c3ccccc3CC[C@@H]2N2CCC[C@@H](N)C2)c(F)c1 (racemic)	1000 to 10000 nM

Note: attention shifts to another entry.
Just so you know, measured IC50 for `O=C1CNC(=O)N1c1ccc(Cl)c(O[C@H]2c3cc(Cl)cc(Cl)c3C[C@@H]2N2CC[C@@H](O)C2)c1` came out at 1000 to 10000 nM

###

- studySystem: sodium-proton exchanger of subtype 3 (NHE3) (Homo sapiens)
- Construct: expressed in transfected cells
- Sequence (P48764 26-834): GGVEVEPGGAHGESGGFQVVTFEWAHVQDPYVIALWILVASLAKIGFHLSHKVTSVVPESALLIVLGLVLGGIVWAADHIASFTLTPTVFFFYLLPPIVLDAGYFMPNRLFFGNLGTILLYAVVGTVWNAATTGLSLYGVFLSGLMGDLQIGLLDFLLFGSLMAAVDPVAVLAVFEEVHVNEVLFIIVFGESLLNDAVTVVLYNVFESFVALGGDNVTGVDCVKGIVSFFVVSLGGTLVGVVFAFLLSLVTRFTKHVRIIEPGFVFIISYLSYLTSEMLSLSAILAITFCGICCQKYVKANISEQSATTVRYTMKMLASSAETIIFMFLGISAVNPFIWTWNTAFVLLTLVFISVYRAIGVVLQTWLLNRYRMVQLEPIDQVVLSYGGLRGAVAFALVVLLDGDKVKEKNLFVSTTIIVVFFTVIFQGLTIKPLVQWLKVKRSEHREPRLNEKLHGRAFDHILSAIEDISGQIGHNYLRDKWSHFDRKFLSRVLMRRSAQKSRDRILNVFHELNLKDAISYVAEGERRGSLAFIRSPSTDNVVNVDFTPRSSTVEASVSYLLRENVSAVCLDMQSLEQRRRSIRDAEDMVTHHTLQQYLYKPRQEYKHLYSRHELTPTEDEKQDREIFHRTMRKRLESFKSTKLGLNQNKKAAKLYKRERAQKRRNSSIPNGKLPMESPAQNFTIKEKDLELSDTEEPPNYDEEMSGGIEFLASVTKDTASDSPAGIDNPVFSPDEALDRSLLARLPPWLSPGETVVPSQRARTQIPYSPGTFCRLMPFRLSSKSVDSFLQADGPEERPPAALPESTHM
- testDetails: Recovery of intracellular pH (pHi) after acidification in LAP1 cells stably expressing NHE3 (BCECF fluorescence, FLIPR)
- Assay type: cell-based
- measurementConditions: LAP1 cells stably expressing NHE3; pH recovery after acidification; range 1 is % inhibition at 10 μM; read-out: Activity range (inhibitory effect on NHE3)
pIC50: −log10 of the molar value.
Form field: pIC50 (one value per entry).

Answered cases to consult:
Cc1nnc(C)n1-c1ccc(O[C@H]2c3c(Cl)sc(Cl)c3CC[C@@H]2N2CCCC2)c(F)c1 (racemic)	5.00 to 6.00
N[C@@H]1CCCN([C@@H]2Cc3ccccc3[C@H]2Oc2ccnc3ccccc23)C1 (racemic)	5.00 to 6.00
N[C@@H]1CCCN([C@H]2Cc3c(Cl)cc(Cl)cc3[C@@H]2Oc2ccc(S(N)(=O)=O)cc2)C1	> 6.00

Just so you know, measured pIC50 for `CS(=O)(=O)c1ccccc1O[C@H]1c2cc(Cl)cc(Cl)c2C[C@@H]1N1CCNCC1` came out at 5.00 to 6.00

Just so you know, measured pIC50 for Cc1c(O[C@H]2c3ccccc3C[C@@H]2N2CCCC2)ccc(-n2c(C)nnc2C)c1C (racemic) came out at > 6.00

Just so you know, measured pIC50 for `CC(=O)Nc1cccc(O[C@H]2c3ccccc3C[C@@H]2N2CCC[C@@H](NCCC(F)(F)F)C2)c1` came out at > 6.00

Just so you know, measured pIC50 for N[C@H]1CCCN([C@@H]2Cc3ccccc3[C@H]2Oc2ccc(N3CCNCC3)cc2)C1 (racemic) came out at 5.00 to 6.00

Just so you know, measured pIC50 for NC(=O)c1ccc(O[C@@H]2c3ccccc3C[C@H]2N2CCC[C@@H](N)C2)cc1 (racemic) [Example 524] came out at > 6.00

Just so you know, measured pIC50 for `Cc1nn(-c2ccc(O[C@H]3c4cc(Cl)cc(Cl)c4C[C@@H]3N3CC[C@@H](O)C3)cc2)c(=O)o1` came out at 5.00 to 6.00

Just so you know, measured pIC50 for `Cn1ccn(-c2ccc(F)c(O[C@H]3c4cc(F)cc(F)c4C[C@@H]3N3CC[C@@H](O)C3)c2)c1=O` came out at 5.00 to 6.00

Attribution: patent US8822449B2
